The entries below come with measured Ki values attached.
molecular target: Myeloid Cell Leukemia 1(Mcl-1) (Homo sapiens, UniProt Q07820)
Sequence (Q07820 whole entry): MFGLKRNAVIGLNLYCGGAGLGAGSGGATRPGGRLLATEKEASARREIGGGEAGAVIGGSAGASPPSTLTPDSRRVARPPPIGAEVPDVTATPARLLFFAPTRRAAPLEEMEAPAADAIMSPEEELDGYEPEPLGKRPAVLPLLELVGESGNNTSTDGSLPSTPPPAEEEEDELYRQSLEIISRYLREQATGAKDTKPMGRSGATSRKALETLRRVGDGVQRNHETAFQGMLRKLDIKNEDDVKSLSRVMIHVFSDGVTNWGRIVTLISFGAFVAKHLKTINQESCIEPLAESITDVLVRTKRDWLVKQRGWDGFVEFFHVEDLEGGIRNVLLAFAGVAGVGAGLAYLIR
Express it in nM; write the number only.

Here is how some molecules turned out for Ki.
SMILES_STRUCTURE	UNITS_OF_MEASURE	RESULT_NUMBER
Cc1nc(CN(C)C(=O)[C@H]2/C(F)=C/C[C@H](C)[C@@H](C)S(=O)(=O)NC(=O)c3ccc4c(c3)N(C[C@@H]3CCCN32)C[C@@]2(CCCc3cc(Cl)ccc32)CO4)co1	nM	0.079
CC(C)N(C)C(=O)[C@H]1/C(F)=C/C[C@H](C)[C@@H](C)S(=O)(=O)NC(=O)c2ccc3c(c2)N(C[C@@H]2CCCN21)C[C@@]1(CCCc2cc(Cl)ccc21)CO3	nM	0.105

Now take the following molecule into account.
Query: With Myeloid Cell Leukemia 1(Mcl-1) (Homo sapiens, UniProt Q07820) as the test system, provide measured Ki for this molecule: C[C@@H]1[C@@H](C)C/C=C(\F)[C@H](C(=O)N(C)CC2OCCO2)N2CCC[C@H]2CN2C[C@@]3(CCCc4cc(Cl)ccc43)COc3ccc(cc32)C(=O)NS1(=O)=O
Result: 0.038
